# assay target: T1, human PCSK9 (self-cleaved, mature, secreted PCSK9 comprising amino acids 31 to 692 of SEQ ID NO: 2) (human, UniProt Q8NBP7 31-692, biotinylated in the ELISAs)
# T1 construct: Limits 31-692 are stated for the immunogen; the assays only say human PCSK9; also called huPCSK9; rhu PCSK9
# experimental protocol: SPR pH 5.5

- binder: "SS-15087 (antibody, V domains shown) VH: EVQLVESGGGLVKPGGSLRLSCAASGFTFSSYSMNWVRQAPGKGLEWVSSISSSSSYISYADSVKGRFTISRDNAKNSLYLQMNSLRAEDTAVYFCARDYDFHSAHYDAFDVWGQGTMVTVSS VL: ESVLTQPPSVSGAPGQRVTISCTGSSSNIGAGYDVHWYQQLPGTAPKLLISGNSNRPSGVPDRFSGSKSGTSASLAITGLQAEDEADYYCQSYDSSLHGSVFGGGTKLTVLG"
  estimated complex half life pH 5.5 [s]: 100
- binder: "SS-15139 (antibody, V domains shown, 31H4 His variant: HC 72(62), 132(106), parental(113H)) VH: EVQLVESGGGLVKPGGSLRLSCAASGFTFSSYSMNWVRQAPGKGLEWVSSISSSSSYISYAHSVKGRFTISRDNAKNSLYLQMNSLRAEDTAVYFCARDYDFHSAHYDAFDVWGQGTMVTVSS VL: ESVLTQPPSVSGAPGQRVTISCTGSSSNIGAGYDVHWYQQLPGTAPKLLISGNSNRPSGVPDRFSGSKSGTSASLAITGLQAEDEADYYCQSYDSSLSGSVFGGGTKLTVLG"
  estimated complex half life pH 5.5 [s]: 100
